The reported numbers originate from ChEMBL document CHEMBL3994625.

PROTOCOL DETAILS: n-octanol-phosphate buffer distribution coefficient, log D of the compound at pH 2 after 90 mins by shake-flask method
Type: physicochemical
Label TRUE when logD at […] < 2; otherwise FALSE.

> print(dat)
                                molecule  group
1  Cn1ncc2cc(C(=O)Nc3ccc(F)c(Cl)c3)ccc21  FALSE

Criterion: logD at […] strictly below 2. Is it met by Cn1cc2cc(C(=O)Nc3ccc(Cl)c(Cl)c3)ccc2n1 ?
FALSE

Criterion: logD at […] strictly below 2. Is it met by Cn1cc2cc(C(=O)Nc3ccc(F)c(Cl)c3)ccc2n1 ?
FALSE

Criterion: logD at […] strictly below 2. Is it met by O=C(Nc1ccc(F)c(F)c1)c1ccc2[nH]ncc2c1 ?
FALSE

Criterion: logD at […] strictly below 2. Is it met by COCCc1ccc(OCC(O)CNC(C)C)cc1 (stereo not given) ?
TRUE
